Data provenance: ChEMBL document CHEMBL3885861

Can you tell me Mono for the items I'm about to list?
- Species: Rattus norvegicus
- Assay Protocol: Open TG-GATES - Regimen: Single
- Assay type: toxicity, organism-based, Sprague-Dawley
- Design: regimen Single, gender Male, age 6 weeks
- Particulars: in vivo, po, 0 mg/kg, 3 h, tissue Blood, route gavage, dose level Control
A number alone suffices; assume %.

### Prompt Quick one: Mono of "CCc1oc2ccccc2c1C(=O)c1cc(I)c(O)c(I)c1" ?
### Response 8

### Prompt Next up: "C[C@](N)(Cc1ccc(O)c(O)c1)C(=O)O"
### Response 3.2

### Prompt CCN1CCCC1CNC(=O)c1cc(S(N)(=O)=O)ccc1OC (stereo not given) [SULPIRIDE] , same question.
### Response 2.4

### Prompt Try "CCC(C)(C)C(=O)O[C@H]1C[C@@H](C)C=C2C=C[C@H](C)[C@H](CC[C@@H]3C[C@@H](O)CC(=O)O3)[C@H]21" next.
### Response 6

### Prompt Similarly, CC(C)C(=O)Nc1ccc([N+](=O)[O-])c(C(F)(F)F)c1 [FLUTAMIDE] ?
### Response 3.6

### Prompt Would you kindly repeat that for "C#C[C@]1(O)CC[C@H]2[C@@H]3CCc4cc(O)ccc4[C@H]3CC[C@@]21C" ?
### Response 3.8

### Prompt Also "CCSCC[C@H](N)C(=O)O" ?
### Response 3

### Prompt // same read-out, input: "Nc1nc(N)c2nc(-c3ccccc3)c(N)nc2n1"
### Response 3.2

### Prompt Moving on to "CN1C(=O)OC(C)(C)C1=O"
### Response 3

### Prompt Please give the result for "Oc1ncnc2[nH]ncc12" too.
### Response 7.4

====

- Species: Rattus norvegicus
- Assay Protocol: Open TG-GATES - Regimen: Daily Repeat
- Type: toxicity, organism-based, Sprague-Dawley
- Design: regimen Daily Repeat, gender Male, age 6 weeks
- Particulars: in vivo, po, 100 mg/kg, 72 h, tissue Plasma, route gavage, dose level Low, time 3 day
Metric Name: Cl (meq/L)
Please state the figure in meq/L; there is no need to write the unit.

### Prompt For "CC(C)(S)[C@@H](N)C(=O)O" , what is its reported Cl?
### Response 106.6

### Prompt Would you mind doing "O=C(N[C@H](CO)[C@H](O)c1ccc([N+](=O)[O-])cc1)C(Cl)Cl" as well?
### Response 104.6

### Prompt Further, for "O=C(O)c1cccnc1" ?
### Response 104.2

### Prompt One more compound: CCN1CCCC1CNC(=O)c1cc(S(N)(=O)=O)ccc1OC (centres undefined) [SULPIRIDE]
### Response 105.2

====

Give ALT for every item shown.
- Species on record: Rattus norvegicus
- Assay Protocol: Open TG-GATES - Regimen: Daily Repeat
- Assay type: toxicity, organism-based, Sprague-Dawley
- Set-up: regimen Daily Repeat, gender Male, age 6 weeks
- Particulars: in vivo, po, 1000 mg/kg, […], tissue Plasma, route gavage, dose level High, time 14 day
I'd appreciate it if you wrote the number followed by its unit.

### Prompt Any idea what ALT was measured for "CC(C)(S)[C@@H](N)C(=O)O" ?
### Response 37.2 IU/L

### Prompt Can you handle "O=C(O)c1cccnc1" next?
### Response 44.8 IU/L

### Prompt Entry to check: CCN1CCCC1CNC(=O)c1cc(S(N)(=O)=O)ccc1OC (centres undefined) [SULPIRIDE]
### Response 41.8 IU/L

### Prompt Next record, please: "O=C(N[C@H](CO)[C@H](O)c1ccc([N+](=O)[O-])cc1)C(Cl)Cl"
### Response 50.6 IU/L

====

- Organism: Rattus norvegicus
- Assay Protocol: Open TG-GATES - Regimen: Single
- Type: toxicity, organism-based, Sprague-Dawley
- Parameters: regimen Single, gender Male, age 6 weeks
- Particulars: in vivo, po, 0 mg/kg, 3 h, tissue Plasma, route gavage, dose level Control
Would you kindly list PL for each of these molecules?
API: value field is a number in mg/dL; no unit string.

### Prompt Bench note: what PL did "Nc1nc(N)c2nc(-c3ccccc3)c(N)nc2n1" show?
### Response 143.4

### Prompt Another molecule to check: CCN1CCCC1CNC(=O)c1cc(S(N)(=O)=O)ccc1OC (configuration not stated) [SULPIRIDE]
### Response 116

### Prompt Item: "CCSCC[C@H](N)C(=O)O"
### Response 136.8

### Prompt # repeat for "O=C(O)c1cccnc1"
### Response 138.6

### Prompt Queued: "CC(=O)Oc1cc(C(C)C)c(OCCN(C)C)cc1C"
### Response 137.4

### Prompt Follow-up entry: "C[C@]12CCC(=O)C=C1CC[C@@H]1[C@@H]2CC[C@@]2(C)[C@H]1CC[C@]2(C)O"
### Response 136.4

### Prompt Request: "Oc1ncnc2[nH]ncc12"
### Response 137.4

====

- Species: Rattus norvegicus
- Assay Protocol: Open TG-GATES - Regimen: Daily Repeat
- Assay type: toxicity, organism-based, Sprague-Dawley
- Set-up: regimen Daily Repeat, gender Male, age 6 weeks
- Particulars: in vivo, po, 100 mg/kg, 72 h, tissue Plasma, route gavage, dose level Low, time 3 day
Metric Name: ALT (IU/L)
Please respond with the number in IU/L and leave the unit unwritten.

### Prompt Name the recorded ALT for O=C(O)c1cccnc1 [NIACIN] .
### Response 49

### Prompt Also check O=C(N[C@H](CO)[C@H](O)c1ccc([N+](=O)[O-])cc1)C(Cl)Cl [CHLORAMPHENICOL]
### Response 45

### Prompt Similarly, CC(C)(S)[C@@H](N)C(=O)O [PENICILLAMINE] ?
### Response 40.2

### Prompt What would you report for CCN1CCCC1CNC(=O)c1cc(S(N)(=O)=O)ccc1OC (centres undefined) [SULPIRIDE] ?
### Response 42.4

====

Kindly supply the reported LDH values for the records listed here.
- Species: Rattus norvegicus
- Assay Protocol: Open TG-GATES - Regimen: Daily Repeat
- Assay type: toxicity, organism-based, Sprague-Dawley
- Parameters: regimen Daily Repeat, gender Male, age 6 weeks
- Particulars: in vivo, po, 100 mg/kg, […], tissue Plasma, route gavage, dose level Low, time 7 day
Provide the reading as a plain figure in IU/L.

### Prompt Dear colleague, I am looking for the recorded LDH of the following compound: "O=C(N[C@H](CO)[C@H](O)c1ccc([N+](=O)[O-])cc1)C(Cl)Cl"
### Response 65.8

### Prompt Repeat with CCN1CCCC1CNC(=O)c1cc(S(N)(=O)=O)ccc1OC (centres undefined) [SULPIRIDE]
### Response 64.2

### Prompt Proceed to "O=C(O)c1cccnc1"
### Response 141

### Prompt Then what about the compound "CC(C)(S)[C@@H](N)C(=O)O" ?
### Response 80.6

====

- Species on record: Rattus norvegicus
- Assay Protocol: Open TG-GATES - Regimen: Daily Repeat
- Type: toxicity, organism-based, Sprague-Dawley
- Parameters: regimen Daily Repeat, gender Male, age 6 weeks
- Particulars: in vivo, po, 100 mg/kg, […], tissue Plasma, route gavage, dose level Low, time 14 day
Metric Name: ALP
Quick note: unit goes after the number.

### Prompt Tell me the measured ALP of O=C(N[C@H](CO)[C@H](O)c1ccc([N+](=O)[O-])cc1)C(Cl)Cl [CHLORAMPHENICOL] , please.
### Response 1535.2 IU/L

### Prompt Can you check O=C(O)c1cccnc1 [NIACIN] next?
### Response 1532.6 IU/L

### Prompt What do we get for CC(C)(S)[C@@H](N)C(=O)O [PENICILLAMINE] ?
### Response 1443.4 IU/L

### Prompt Next: CCN1CCCC1CNC(=O)c1cc(S(N)(=O)=O)ccc1OC (centres undefined) [SULPIRIDE]
### Response 1376.8 IU/L

====

- Species: Rattus norvegicus
- Assay Protocol: Open TG-GATES - Regimen: Single
- Assay type: toxicity, organism-based, Sprague-Dawley
- Parameters: regimen Single, gender Male, age 6 weeks
- Particulars: in vivo, po, 0 mg/kg, 3 h, tissue Blood, route gavage, dose level Control
Please enter T where Ret is greater than or equal to 8%, and F where it is lower.

### Prompt # bool: Ret of C#C[C@]1(O)CC[C@H]2[C@@H]3CCc4cc(O)ccc4[C@H]3CC[C@@]21C [ETHINYL ESTRADIOL] >= 8%
### Response T

### Prompt Then this compound: CCSCC[C@H](N)C(=O)O [ETHIONINE]
### Response F

### Prompt Next compound: CCN1CCCC1CNC(=O)c1cc(S(N)(=O)=O)ccc1OC (stereo unspecified) [SULPIRIDE]
### Response F

### Prompt Now try CC(=N)S [THIOACETAMIDE] .
### Response T

### Prompt Next: CC(C)(S)[C@@H](N)C(=O)O [PENICILLAMINE]
### Response T
